test: Particle size of nucleic acid lipid particles (Luc2-siRNA); type: physicochemical; conditions: compound/DSPC/cholesterol/DMG-PEG2000 50/10/38.5/1.5
value-type: Particle size (nm)

[[record]]
compound = "CCCCCCCCCCC(CCCCCCCC)COC(=O)CCCC(CCCCCC)OC(=O)OCCN(CCN(CC)CC)C(C)C (stereo not shown)"
measurement = 68.6

[[record]]
compound = "CCCCC/C=C\\C/C=C\\CCCCCCCCC(CCCCCCCC/C=C\\C/C=C\\CCCCC)OC(=O)OCCN(CCCCCC)CCN(C)C"
measurement = 80.4

[[record]]
compound = "CCCCC/C=C\\C/C=C\\CCCCCCCCC(CCCCCCCC/C=C\\C/C=C\\CCCCC)OC(=O)OCCN(CCCCCCCCCCCC)CCN(C)C"
measurement = 81

[[record]]
compound = "CCCCCCCCCC(CCCCCCCCC)COC(=O)CCCC(CCCCCC)OC(=O)OCCN(CCN(CC)CC)C(C)C (stereo not shown)"
measurement = 68.3


====

tested on: Factor VII (FVII) protein; experiment: Measurement of Factor VII (FVII) protein in mouse plasma after FVII-siRNA lipid particles; type: in vivo, C57BL6/J mice; conditions: 0.1 mg/kg caudal vein, plasma 24 hours after administration, PBS group = 100%
value-type: Relative amount of FVII protein (%)
Lab book: enter the figure in %, no units written.

Would you please look over these solved cases?
[[record]]
compound = "CCCCCCCCC(CCCCCC)COC(=O)CCCCCCC(CCCCCC)OC(=O)OCCN(CCN(CC)CC)C(C)C (stereo not drawn)"
value_type = "Relative amount of FVII protein (%)"
measurement = 8

[[record]]
compound = "CCCCCCCCCC(CCCCCCCCC)COC(=O)CCCC(CCCCCC)OC(=O)OCCN(CCN(CC)CC)C(C)C (stereo not drawn)"
value_type = "Relative amount of FVII protein (%)"
measurement = 8


Turning now to a further compound:
# Relative amount of FVII protein (%) measured on Factor VII (FVII) protein for item CCCCCCCC/C=C\CCCCCCCC(=O)OCCN(CCOC(=O)OC(CCCCCC)CCCC(=O)OCC(CCCC)CCCCCC)CCN(CC)CC (stereo not drawn) = 5

====

tested on: Factor VII (FVII) protein; test: Measurement of Factor VII (FVII) protein in mouse plasma after FVII-siRNA lipid particles; assay type: in vivo, C57BL6/J mice; settings: 0.1 mg/kg caudal vein, plasma 24 hours after administration, PBS group = 100%
value-type: Relative amount of FVII protein (%)
Lab book: enter the figure in %, no units written.

Would you please look over these solved cases?
[[record]]
compound = "CCCCCCCCCC(=O)OCCN(CCOC(=O)OC(CCCCCC)CCCC(=O)OCC(CCCC)CCCCCC)CCN(CC)CC (stereo not shown) [Example 107]"
measurement = 1

[[record]]
compound = "CCCCCCCCC(=O)OCCN(CCOC(=O)OC(CCCCCC)CCCCCCCCC(=O)OCC(CCCC)CCCCCC)CCN(CC)CC (stereo not shown) [Example 103]"
measurement = 2

[[record]]
compound = "CCCCCCCCCC(=O)OCCCCCCC(CCCCCCOC(=O)CC(CCCCCCC)CCCCCCC)OC(=O)OCCN(CC)CCN(CC)CC (stereo not shown) [Example 78]"
measurement = 10


Turning now to a further compound:
Measured Relative amount of FVII protein (%), CCCCCCCCCCCCC(CCCCCCCCC(=O)OCC(CCCC)CCCCCC)OC(=O)OCCN(CCN(CC)CC)C(C)C (stereo not shown) [Example 61] : 8

====

assay: Nucleic acid encapsulation rate of nucleic acid lipid particles (FVII-siRNA); format: physicochemical
value-type: Nucleic acid encapsulation rate (%)

[[record]]
compound = "CCCCC/C=C\\C/C=C\\CCCCCCCCC(CCCCCCCC/C=C\\C/C=C\\CCCCC)OC(=O)OCCN(C)CCN(CC)CC"
value_type = "Nucleic acid encapsulation rate"
unit_abbreviation = "%"
measurement = 57

[[record]]
compound = "CCCCCCCC(=O)OCCN(CCOC(=O)OC(CCCCCC)CCCCCCCCC(=O)OCC(CCCC)CCCCCC)CCN(CC)CC (stereo not drawn)"
value_type = "Nucleic acid encapsulation rate"
unit_abbreviation = "%"
measurement = 83

[[record]]
compound = "CCCCCCC(=O)OCCN(CCOC(=O)OC(CCCCCC)CCCCCCCCC(=O)OCC(CCCC)CCCCCC)CCN(CC)CC (stereo not drawn)"
value_type = "Nucleic acid encapsulation rate"
unit_abbreviation = "%"
measurement = 69


====

experiment: Encapsulation rate of siRNA in nucleic acid lipid particles (Luc2-siRNA); assay type: physicochemical; conditions: compound/DSPC/cholesterol/DMG-PEG2000 50/10/38.5/1.5
value-type: Nucleic acid encapsulation rate (%)

[[record]]
compound = "CCCCC/C=C\\C/C=C\\CCCCCCCCC(CCCCCCCC/C=C\\C/C=C\\CCCCC)OC(=O)OCCN(CCC)CCN(CC)CC"
measurement = 59

[[record]]
compound = "CCCCCCCCC(CCCCCC)COC(=O)CCCCCCCCC(CCCCC)OC(=O)OCCN(CCOC(=O)CCCCCCC)CCN(CC)CC (stereo not shown)"
measurement = 76

[[record]]
compound = "CCCCCCCCC(CCCCCC)COC(=O)CCCCCCCCC(CCCCCC)OC(=O)OCCN(CCOC(=O)CCCCCCC)CCN(CC)CC (stereo not shown)"
measurement = 81

[[record]]
compound = "CCCCC/C=C\\C/C=C\\CCCCCCCCC(CCCCCCCC/C=C\\C/C=C\\CCCCC)N(C)CCN(C)C [Comparative Example 9, reference compound]"
measurement = 84

[[record]]
compound = "CCCCCCCC/C=C\\CCCCCCCC(=O)OCCN(CCOC(=O)OC(CCCCCC)CCCCCCCCC(=O)OCC(CCCCCC)CCCCCCCC)CCN(CC)CC (stereo not shown)"
measurement = 90

[[record]]
compound = "CCCCC/C=C\\C/C=C\\CCCCCCCCC(CCCCCCCC/C=C\\C/C=C\\CCCCC)OC(=O)OCCN(CCN(C)C)C1CCCCC1"
measurement = 78

[[record]]
compound = "CCCCC/C=C\\C/C=C\\CCCCCCCCN(CCCCCCCC/C=C\\C/C=C\\CCCCC)C(=O)OCCN(C)CCN1CCOCC1"
measurement = 78

[[record]]
compound = "CCCCCCC(CCCCCCCCC(=O)OCC(CCCCC)CCCCC)OC(=O)OCCN(CCO)CCN(CC)CC (stereo not shown)"
measurement = 62

[[record]]
compound = "CCCCCCCCCCCC(=O)OCCN(CCOC(=O)OC(CCCCCC)CCCCCCCCC(=O)OCC(CCCC)CCCCCC)CCN(CC)CC (stereo not shown)"
measurement = 74

[[record]]
compound = "CCCCC/C=C\\C/C=C\\CCCCCCCCC(CCCCCCCC/C=C\\C/C=C\\CCCCC)OC(=O)OCCN(CC)CCN(CCC)CCC"
measurement = 80

[[record]]
compound = "CCCCC/C=C\\C/C=C\\CCCCCCCCC(CCCCCCCC/C=C\\C/C=C\\CCCCC)OC(=O)OCCN(CCC)CCN(C)C"
measurement = 78

[[record]]
compound = "CCCCC/C=C\\C/C=C\\CCCCCCCCN(CCCCCCCC/C=C\\C/C=C\\CCCCC)C(=O)OCCCN(C)CCN(C)C"
measurement = 78

[[record]]
compound = "CCCCC/C=C\\C/C=C\\CCCCCCCCC(CCCCCCCC/C=C\\C/C=C\\CCCCC)OC(=O)OCCN(CCC)CCN(C)C(C)C"
measurement = 75

[[record]]
compound = "CCCCCCCOC(=O)CCN(CCOC(=O)OC(CCCCCC)CCCCCCCCC(=O)OCC(CCCC)CCCCCC)CCN(CC)CC (stereo not shown)"
measurement = 83

[[record]]
compound = "CCCCCCCCCCC(CCCCCCCCC(=O)OCC(CCCC)CCCCCC)OC(=O)OCCN(CC)CCN(CC)CC (stereo not shown)"
measurement = 97

[[record]]
compound = "CCCCCCCCCC(=O)OCCN(CCOC(=O)OC(CCCCCC)CCCC(=O)OCC(CCCC)CCCCCC)CCN(CC)CC (stereo not shown)"
measurement = 78


src = patent US12370143B2
